Assay target: KDR (human, UniProt P35968 20-1356)
Sequence (P35968 20-1356): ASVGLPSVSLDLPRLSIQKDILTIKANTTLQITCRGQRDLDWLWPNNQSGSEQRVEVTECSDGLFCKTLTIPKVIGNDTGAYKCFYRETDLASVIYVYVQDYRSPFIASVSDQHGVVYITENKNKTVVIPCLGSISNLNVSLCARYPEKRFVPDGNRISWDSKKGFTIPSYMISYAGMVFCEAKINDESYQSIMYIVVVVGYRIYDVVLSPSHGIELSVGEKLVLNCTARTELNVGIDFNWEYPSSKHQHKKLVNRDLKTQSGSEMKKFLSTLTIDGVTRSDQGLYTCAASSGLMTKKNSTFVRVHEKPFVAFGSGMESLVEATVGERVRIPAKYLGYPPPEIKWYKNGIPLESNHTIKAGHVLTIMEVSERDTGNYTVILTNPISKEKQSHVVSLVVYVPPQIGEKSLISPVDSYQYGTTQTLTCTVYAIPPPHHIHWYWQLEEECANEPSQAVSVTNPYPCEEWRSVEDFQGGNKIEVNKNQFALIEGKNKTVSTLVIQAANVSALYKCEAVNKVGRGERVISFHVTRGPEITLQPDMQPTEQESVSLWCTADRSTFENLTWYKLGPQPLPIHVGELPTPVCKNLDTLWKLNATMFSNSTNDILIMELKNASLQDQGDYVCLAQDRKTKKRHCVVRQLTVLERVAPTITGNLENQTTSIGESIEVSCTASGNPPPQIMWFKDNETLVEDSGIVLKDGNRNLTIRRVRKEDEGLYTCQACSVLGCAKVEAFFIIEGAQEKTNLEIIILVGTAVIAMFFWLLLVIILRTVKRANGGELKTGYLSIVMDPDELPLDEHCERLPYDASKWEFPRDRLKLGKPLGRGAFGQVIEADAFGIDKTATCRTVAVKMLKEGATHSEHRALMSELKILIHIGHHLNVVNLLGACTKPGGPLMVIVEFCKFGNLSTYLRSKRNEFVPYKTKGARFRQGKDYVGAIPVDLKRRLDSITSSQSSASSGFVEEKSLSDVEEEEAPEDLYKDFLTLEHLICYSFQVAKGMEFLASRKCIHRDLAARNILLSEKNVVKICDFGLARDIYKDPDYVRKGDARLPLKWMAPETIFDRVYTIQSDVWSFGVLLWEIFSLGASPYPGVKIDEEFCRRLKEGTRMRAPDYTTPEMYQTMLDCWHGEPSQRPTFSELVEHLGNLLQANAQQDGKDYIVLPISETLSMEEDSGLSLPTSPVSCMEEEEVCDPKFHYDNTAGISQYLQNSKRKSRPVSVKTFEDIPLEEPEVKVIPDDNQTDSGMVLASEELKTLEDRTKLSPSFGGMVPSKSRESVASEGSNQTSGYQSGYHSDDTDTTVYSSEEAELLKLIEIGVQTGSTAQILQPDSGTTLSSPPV
Test protocol: cell-based or functional assay
Experimental endpoint: % of Max VEGF KDR pTyr Activity (at 133 nM antibody concentration), Average (%)
Report the figure in % without appending any unit label.

Asked: Reported % of Max VEGF KDR pTyr Activity (at 133 nM antibody concentration), Average, binder 31E11 (antibody, V domains shown) VH: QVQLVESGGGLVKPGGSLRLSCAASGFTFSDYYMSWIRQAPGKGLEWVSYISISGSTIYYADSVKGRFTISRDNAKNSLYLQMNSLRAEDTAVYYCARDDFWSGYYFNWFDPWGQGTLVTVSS VL: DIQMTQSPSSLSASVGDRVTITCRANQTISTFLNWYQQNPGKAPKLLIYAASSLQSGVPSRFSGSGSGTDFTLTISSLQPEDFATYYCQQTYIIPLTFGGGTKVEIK : ____
Given back: 5
